Test: Phase 1 first-in-human study, pharmacokinetics in plasma
Conditions: cohort B, 4 mg PO at 0 and +10 hours
Please go through the items and note down their Tmax, Min.
Only the number, expressed in min, is required.

Prompt: Given COCCC1CC2CN3C=Cc4c([nH]c5ccccc45)C(C(=O)OC)(C2)C13 (stereo not shown) , state its recorded Tmax, Min.
Response: 30

Prompt: Given `COCC[C@H]1CC2CN3CCc4c([nH]c5ccccc45)[C@](C(=O)OC)(C2)[C@H]13` , state its recorded Tmax, Min.
Response: 30

Prompt: Given COC(=O)C12CC3CC(CC(=O)O)C1N(CCc1c2[nH]c2ccccc12)C3 (stereo not shown) , state its recorded Tmax, Min.
Response: 30

Prompt: Given COC(=O)C12CC3CC(CCO)C1N(C=Cc1c2[nH]c2ccccc12)C3 (stereo not shown) , state its recorded Tmax, Min.
Response: 660

meta.source: patent US20230201217A1
